Hello, the source for this data is paper PMC9683047, in case you need it.

# collection of log10(IC50) values tested on RIPK2 (Homo sapiens, UniProt O43353)
# Sequence (O43353 whole entry): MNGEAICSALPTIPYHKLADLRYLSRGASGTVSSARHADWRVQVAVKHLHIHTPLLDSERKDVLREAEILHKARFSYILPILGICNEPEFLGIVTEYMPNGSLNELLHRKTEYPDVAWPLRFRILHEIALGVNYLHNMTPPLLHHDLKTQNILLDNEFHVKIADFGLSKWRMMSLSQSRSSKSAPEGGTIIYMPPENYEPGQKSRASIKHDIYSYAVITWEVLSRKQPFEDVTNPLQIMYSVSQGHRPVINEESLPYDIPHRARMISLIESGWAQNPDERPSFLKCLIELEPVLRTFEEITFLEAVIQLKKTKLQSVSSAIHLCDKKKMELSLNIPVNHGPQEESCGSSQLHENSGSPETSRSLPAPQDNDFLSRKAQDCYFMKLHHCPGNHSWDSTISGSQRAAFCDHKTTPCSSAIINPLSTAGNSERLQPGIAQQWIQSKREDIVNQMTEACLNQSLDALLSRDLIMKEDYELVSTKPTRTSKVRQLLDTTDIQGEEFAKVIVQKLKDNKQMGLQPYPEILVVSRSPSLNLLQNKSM
Base-10 log of IC50, unit nM.

Observe how each entry below is paired with its result.
c1ccc(-c2ccc3nccc(Nc4ccc5scnc5c4)c3c2)nc1 [Compound 16]: 0.56
Brc1ccc2nccc(Nc3ccccc3)c2c1 [Compound 1, 6-Bromo-N-phenylquinolin-4-amine]: 2.39
Fc1cc(Nc2ccnc3ccc(Br)cc23)ccc1Cl [Compound 5]: 1.50
Brc1ccc2nccc(Nc3ccncc3)c2c1 [Compound 9, 6-Bromo-N-(pyridin-4-yl)quinolin-4-amine]: 2.62

Next compound, please.
Data request: Check the records and state log10(IC50) for c1ncc(-c2ccc3nccc(Nc4ccc5scnc5c4)c3c2)cn1 [Compound 17]
Data returned: 0.18

* * *

Target: RIPK2 (Homo sapiens)
Construct: purchased Promega
Experiment: Lipophilic ligand efficiency (LipE)
Details: LipE = pIC50 − ClogP
Label Yes when LipE >= 4; otherwise No.

Check out these entries, answers already filled in.
COc1cc(Nc2ccnc3ccc(-c4ccncc4)cc23)cc(OC)c1OC: No
CC(C)(C)S(=O)(=O)c1cc2c(Nc3ccc4scnc4c3)ncnc2cc1OCCO [Compound P5, reference compound]: Yes
c1ccc2ncc(-c3ccc4nccc(Nc5ccc6scnc6c5)c4c3)cc2c1: No
c1cc(Nc2ccc3scnc3c2)c2cc(-c3cn[nH]c3)ccc2n1: No
c1cc(Nc2ccc3scnc3c2)c2cc(-c3ccnc4[nH]ccc34)ccc2n1: No

Data request: LipE >= 4 for COc1cc(Nc2ccnc3ccc(-c4cccc5[nH]ncc45)cc23)cc(OC)c1OC ?
Data returned: No

Data request: Answer whether LipE of c1ccc(-c2ccc3nccc(Nc4ccc5scnc5c4)c3c2)cc1 is greater than or equal to 4.
Data returned: Yes

* * *

Biological target: RIPK2 (Homo sapiens)
Construct: purchased Promega
Assay: Lipophilic ligand efficiency (LipE)
Conditions: LipE = pIC50 − ClogP
metric_name: LipE

Check out these entries, answers already filled in.
CC(=O)c1cccc(Nc2ccnc3ccc(Br)cc23)c1 [Compound 4]: 3.50
c1ccc2c(-c3ccc4nccc(Nc5ccc6scnc6c5)c4c3)cncc2c1 [Compound 29]: 3.81
Cc1cnn(C)c1-c1ccc2nccc(Nc3ccc4scnc4c3)c2c1 [Compound 22]: 3.86
Brc1ccc2nccc(Nc3ccc4cn[nH]c4c3)c2c1 [Compound 12]: 3.49
c1cc(-c2ccc3nccc(Nc4ccc5scnc5c4)c3c2)c2cc[nH]c2c1 [Compound 26]: 5.00

// for each molecule below, give its LipE
1. Brc1ccc2nccc(Nc3ccccc3)c2c1 [Compound 1, 6-Bromo-N-phenylquinolin-4-amine]
2. c1cncc(-c2ccc3nccc(Nc4ccc5scnc5c4)c3c2)c1 [Compound 15]
3. Cc1n[nH]cc1-c1ccc2nccc(Nc3ccc4scnc4c3)c2c1 [Compound 21]
4. Brc1ccc2nccc(Nc3cccnc3)c2c1 [Compound 8, 6-Bromo-N-(pyridin-3-yl)quinolin-4-amine]

Data returned:
1. 2.57
2. 4.27
3. 4.99
4. 3.68

* * *

Field: LipE. Provide a value for each of the molecules that follow.
Biological target: RIPK2 (Homo sapiens, UniProt O43353)
Construct: purchased Promega
Assay: Lipophilic ligand efficiency (LipE)
Conditions: LipE = pIC50 − ClogP
Give bare numbers.

Reference set, count: 3
COc1cc(Nc2ccnc3ccc(-c4c[nH]nc4C)cc23)cc(OC)c1OC: 3.79
COc1cccc(Nc2ccnc3ccc(Br)cc23)c1: 3.10
Fc1cc(Nc2ccnc3ccc(Br)cc23)ccc1Cl: 2.78

Each of the following entries comes with a recorded value; kindly state LipE for each.
1. COc1cc(Nc2ccnc3ccc(-c4cn[nH]c4)cc23)cc(OC)c1OC
2. COc1cc(Nc2ccnc3ccc(-c4ccccn4)cc23)cc(OC)c1OC
3. Brc1ccc2nccc(Nc3ccc4[nH]ccc4c3)c2c1
4. Cc1nn(C)cc1-c1ccc2nccc(Nc3ccc4scnc4c3)c2c1
5. Brc1ccc2nccc(Nc3ccc4ncsc4c3)c2c1
6. COc1cc(Nc2ccnc3ccc(-c4cnn(C)c4)cc23)cc(OC)c1OC

Data returned:
1: 4.22; 2: 3.26; 3: 2.82; 4: 2.92; 5: 3.21; 6: 3.67
